- experimental-protocol: Dose normalized AUC in mouse at 20 mg/kg, iv by HPLC-MS/MS analysis
- Format: ADME, organism-based
- setup-conditions: in vivo
reported-property: AUC/dose (nM·h/mg/kg)

# smiles-structure, AUC/dose (nM·h/mg/kg)
measured = [
    ("COc1c(OCC2CCOCC2)cc(N2C[C@@H](C)n3c(c(CCCOc4cc(C)c(Cl)c(C)c4)c4ccc(Cl)c(-c5c(C)ncnc5C)c43)C2=O)c2c1cc(C(=O)O)n2C", 2830),
    ("COc1c(OC[C@H]2CCCO2)cc(N2C[C@@H](C)n3c(c(CCCOc4cc(C)c(Cl)c(C)c4)c4ccc(Cl)c(-c5c(C)nc(C)nc5C)c43)C2=O)c2c1cc(C(=O)O)n2C", 2510),
]

a. CCOc1c(O[C@H]2CCOC2)cc(N2C[C@@H](C)n3c(c(CCCOc4cc(C)c(Cl)c(C)c4)c4ccc(Cl)c(-c5c(C)nc(C)nc5C)c43)C2=O)c2c1cc(C(=O)O)n2C
b. COc1c(O[C@@H]2CCOC2)cc(N2C[C@@H](C)n3c(c(CCCOc4cc(C)c(Cl)c(C)c4)c4ccc(Cl)c(-c5c(C)nc(C)nc5C)c43)C2=O)c2c1cc(C(=O)O)n2C
c. CCOc1c(OCC2CCOCC2)cc(N2C[C@@H](C)n3c(c(CCCOc4cc(C)c(Cl)c(C)c4)c4ccc(Cl)c(-c5c(C)nc(C)nc5C)c43)C2=O)c2c1cc(C(=O)O)n2C
Order these by AUC/dose, descending, and give the full ranking. Submit the labels in the order that the ranking request calls for.
c, a, b
(c: 4930 nM·h/mg/kg, a: 2460 nM·h/mg/kg, b: 1420 nM·h/mg/kg)
